measurement-target: purified human platelet prolyl oligopeptidase (Homo sapiens, UniProt P48147)
Sequence (P48147 1-710): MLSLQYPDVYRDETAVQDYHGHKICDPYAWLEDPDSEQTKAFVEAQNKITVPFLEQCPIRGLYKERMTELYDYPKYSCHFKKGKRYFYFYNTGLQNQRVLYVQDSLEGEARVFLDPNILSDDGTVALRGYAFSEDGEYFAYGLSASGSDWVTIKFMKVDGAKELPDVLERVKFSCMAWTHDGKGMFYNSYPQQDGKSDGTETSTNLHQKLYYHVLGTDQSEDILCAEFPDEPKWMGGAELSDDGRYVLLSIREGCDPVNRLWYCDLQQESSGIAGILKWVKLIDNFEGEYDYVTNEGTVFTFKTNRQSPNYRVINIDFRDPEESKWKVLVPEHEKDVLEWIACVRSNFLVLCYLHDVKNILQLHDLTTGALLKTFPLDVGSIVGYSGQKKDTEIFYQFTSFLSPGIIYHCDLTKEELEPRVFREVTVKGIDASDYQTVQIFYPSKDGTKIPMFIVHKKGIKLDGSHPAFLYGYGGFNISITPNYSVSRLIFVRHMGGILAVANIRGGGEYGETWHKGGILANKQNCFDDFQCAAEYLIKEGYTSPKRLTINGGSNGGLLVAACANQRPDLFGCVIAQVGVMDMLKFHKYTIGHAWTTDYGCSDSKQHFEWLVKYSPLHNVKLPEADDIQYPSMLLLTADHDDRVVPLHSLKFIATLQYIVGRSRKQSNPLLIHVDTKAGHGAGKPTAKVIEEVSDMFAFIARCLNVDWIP
Item-by-item account of pIC50
Kindly note that pIC50 refers to -log10 of the concentration in mol/L and answer with the value alone.

Field: example entries. Status: answers known.
compound: O=C(C1CSCN1C(=O)OCc1ccccc1)N1CCC1 (stereo not shown) [Z-thiopro-azetidine]
pIC50: 5.74
//
compound: O=C([C@@H]1CCCN1C(=O)OCc1ccccc1)N1CCC(F)C1 (stereo partly shown) [Z-Pro-3-fluoropyrrolidine]
pIC50: 6.35

GET /values?readout=pIC50&item= O=C(NC(Cc1ccccc1)C(=O)N1CCC1)OCc1ccccc1 (stereo not shown) [Z-Phe-azetidine]
4.52

GET /values?readout=pIC50&item= O=C(C1CCCN1C(=O)OCc1ccccc1)N1CCC1 (stereo not shown) [Z-Pro-azetidine]
5.52

###

Item-by-item account of Ki
measurement-target: UniProtKB P48147
Sequence (P48147 1-710): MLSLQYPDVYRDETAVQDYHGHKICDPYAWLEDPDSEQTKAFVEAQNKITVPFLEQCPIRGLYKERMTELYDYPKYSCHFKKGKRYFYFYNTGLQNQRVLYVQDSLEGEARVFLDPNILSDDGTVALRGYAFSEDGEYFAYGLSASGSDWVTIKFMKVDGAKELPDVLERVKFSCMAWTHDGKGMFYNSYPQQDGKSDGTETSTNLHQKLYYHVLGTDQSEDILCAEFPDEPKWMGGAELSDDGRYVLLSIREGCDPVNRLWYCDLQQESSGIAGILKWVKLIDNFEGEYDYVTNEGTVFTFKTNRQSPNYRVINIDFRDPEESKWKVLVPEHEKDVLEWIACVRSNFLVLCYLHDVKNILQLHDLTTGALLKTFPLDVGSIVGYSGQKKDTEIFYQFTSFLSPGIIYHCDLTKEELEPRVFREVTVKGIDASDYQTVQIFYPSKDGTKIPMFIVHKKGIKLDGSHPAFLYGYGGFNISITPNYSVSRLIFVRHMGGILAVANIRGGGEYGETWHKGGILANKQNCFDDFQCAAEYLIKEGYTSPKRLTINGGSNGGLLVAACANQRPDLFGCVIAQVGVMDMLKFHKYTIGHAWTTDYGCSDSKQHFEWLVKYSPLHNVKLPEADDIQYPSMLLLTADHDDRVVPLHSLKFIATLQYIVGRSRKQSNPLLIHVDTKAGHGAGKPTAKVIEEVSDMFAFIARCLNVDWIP
All answers are understood in nM, so give the number only.

Field: example entries. Status: answers known.
compound: O=C(C1CCCN1C(=O)OCc1ccccc1)N1CCC1 (stereo not drawn)
result-type: Ki
readout-units: nM
assay-value: 2500
//
compound: O=C(C1CSCN1C(=O)OCc1ccccc1)N1CCC1 (stereo not drawn)
result-type: Ki
readout-units: nM
assay-value: 5000

Would you kindly look at the next entry?
// lookup Ki | system=UniProtKB P48147 | key= O=C([C@@H]1CCCN1C(=O)OCc1ccccc1)N1CCC(F)C1 (stereo partly drawn)
100
